Tested on: wheat (Triticum aestivum)
Experiment: Test A postemergence
Assay type: in vivo
Details: Triticum aestivum, post-emergence, 240 h, 125 g ai/ha, postemergence, visual injury vs untreated controls after approx. 10 d; 0 = no effect, 100 = complete control; read-out: Wheat plant response rating (0 to 100 scale)
From the text: […]
OBSERVABLE: plant injury at 125 g/ha (%)
Hi! Could you send only the number? It should be in %, unit omitted.

The molecule identified as "Cc1cc([C@H]2CN(C)C(=O)[C@@H]2C(=O)Nc2ccccc2F)no1" registered its plant injury at 125 g/ha at 0

The molecule identified as "CON1CC[C@H](c2cccc(C(F)(F)F)c2)[C@@H](C(=O)Nc2ccc(F)c(F)c2F)C1=O" registered its plant injury at 125 g/ha at 0

====

System: barnyardgrass (Echinochloa crus-galli)
Assay: Test A postemergence
Assay type: in vivo
Conditions: Postemergence, 500 g ai/ha; 0 to 100 scale where 0 is no effect and 100 is complete control
Plant response rating, Barnyardgrass below 80 gives F; Plant response rating, Barnyardgrass at or above it gives T.

## Task Given the entry CN1CC(c2ccc(Br)cc2)C(C(=O)Nc2cccc(F)c2F)C1=O (stereo not drawn) [Compound 564] , answer whether its Plant response rating, Barnyardgrass meets or surpasses 80.
## Result T

## Task Given the entry CN1CC(c2cccc(C(F)(F)F)c2)C(C(=O)Nc2cccc(C#N)c2F)C1=O (stereo not drawn) [Compound 576] , answer whether its Plant response rating, Barnyardgrass meets or surpasses 80.
## Result T

## Task Given the entry O=C1NCC(c2ccc(C(F)(F)F)c(F)c2)C1C(=O)Nc1cccc(F)c1F (racemic) [Compound 504] , answer whether its Plant response rating, Barnyardgrass meets or surpasses 80.
## Result T

## Task Given the entry O=C1NCC(c2cc(Br)cs2)C1C(=O)Nc1cccc(F)c1F (racemic) [Compound 510] , answer whether its Plant response rating, Barnyardgrass meets or surpasses 80.
## Result F

## Task Given the entry O=C1NCC(c2ccsc2Cl)C1C(=O)Nc1cccc(F)c1F (stereo not drawn) [Compound 600] , answer whether its Plant response rating, Barnyardgrass meets or surpasses 80.
## Result T

## Task Given the entry Cc1ccc(C2CN(C)C(=O)C2C(=O)Nc2ccccc2S(C)(=O)=O)c(F)c1 (stereo not drawn) [Compound 558] , answer whether its Plant response rating, Barnyardgrass meets or surpasses 80.
## Result T

## Task Given the entry O=C1NCC(c2cc(Cl)sc2Cl)C1C(=O)Nc1cccc(F)c1F (stereo not drawn) [Compound 601] , answer whether its Plant response rating, Barnyardgrass meets or surpasses 80.
## Result F

## Task Given the entry O=C1NCC(c2ccsc2Cl)C1C(=O)Nc1ccccc1F (stereo not drawn) [Compound 599] , answer whether its Plant response rating, Barnyardgrass meets or surpasses 80.
## Result F

## Task Given the entry CN1CC(c2cccc(OC(F)F)c2)C(C(=O)Nc2ccc(F)cc2F)C1=O (stereo not drawn) [Compound 617] , answer whether its Plant response rating, Barnyardgrass meets or surpasses 80.
## Result T

## Task Given the entry O=C1NCC(c2ccc(Oc3ccccc3)cc2)C1C(=O)Nc1ccc(F)cc1F (racemic) [Compound 535] , answer whether its Plant response rating, Barnyardgrass meets or surpasses 80.
## Result F

====

Tested on: corn (Zea mays)
Test: Test A postemergence
Assay type: in vivo
Conditions: Zea mays, post-emergence, 240 h, Postemergence, 31 g ai/ha; visual injury after approx. 10 d; 0 to 100 scale, 0 no effect, 100 complete control
Corn plant response rating (crop injury, 0 = no effect, 100 = complete kill) at 31 g/ha below 20% gives Not fulfilled; Corn plant response rating (crop injury, 0 = no effect, 100 = complete kill) at 31 g/ha at or above it gives Fulfilled.

Example cases with answers are listed next.
## Task Given the entry COc1ccc(C(F)(F)F)cc1[C@H]1CN(C)C(=O)[C@@H]1C(=O)Nc1ccccc1F [Compound 1183] , answer whether its Corn plant response rating (crop injury, 0 = no effect, 100 = complete kill) at 31 g/ha meets or surpasses 20%.
## Result Fulfilled

## Task Given the entry CON1CC[C@H](c2cccc(C(F)(F)F)c2)[C@@H](C(=O)Nc2ccccc2C(F)(F)F)C1=O [Compound 1172] , answer whether its Corn plant response rating (crop injury, 0 = no effect, 100 = complete kill) at 31 g/ha meets or surpasses 20%.
## Result Not fulfilled

## Task Given the entry C/C=C/C1CNC(=O)C1C(=O)Nc1ccccc1F (stereo not shown) [Compound 792] , answer whether its Corn plant response rating (crop injury, 0 = no effect, 100 = complete kill) at 31 g/ha meets or surpasses 20%.
## Result Not fulfilled

## Task Given the entry CN1C[C@H](c2cc(F)cc(C(F)(F)F)c2)[C@@H](C(=O)Nc2cccnc2F)C1=O [Compound 1176] , answer whether its Corn plant response rating (crop injury, 0 = no effect, 100 = complete kill) at 31 g/ha meets or surpasses 20%.
## Result Fulfilled

Continuing:
## Task Given the entry CN1C[C@H](c2ccc(C(F)(F)F)nc2)[C@@](C)(C(=O)Nc2cccc(F)c2F)C1=O [Compound 1109] , answer whether its Corn plant response rating (crop injury, 0 = no effect, 100 = complete kill) at 31 g/ha meets or surpasses 20%.
## Result Fulfilled

## Task Given the entry O=C1NC[C@H](c2csc3c2CCC3)[C@H]1C(=O)Nc1cccc(F)c1F [Compound 1164] , answer whether its Corn plant response rating (crop injury, 0 = no effect, 100 = complete kill) at 31 g/ha meets or surpasses 20%.
## Result Not fulfilled

====

System: blackgrass (Alopecurus myosuroides)
Assay: Test A postemergence
Format: in vivo
Conditions: Alopecurus myosuroides, post-emergence, 240 h, 125 g ai/ha, Postemergence; visual injury after approximately 10 d; 0 to 100 scale where 0 is no effect and 100 is complete control; read-out: Plant response rating, Blackgrass
Description: […]
Entries and their pest or weed control at 125 g/ha values follow.
Hi! Could you send only the number? It should be in %, unit omitted.

The molecule identified as "CN1CC[C@H](c2ccccc2)[C@@H](C(=O)Nc2ccccc2F)C1=O" registered its pest or weed control at 125 g/ha at 0

The molecule identified as "CC(C)COc1cccc([C@H]2CNC(=O)[C@@H]2C(=O)Nc2ccc(F)cc2F)c1" registered its pest or weed control at 125 g/ha at 20

The molecule identified as "CC(C)COc1cccc([C@H]2CNC(=O)[C@@H]2C(=O)Nc2cccc(F)c2F)c1" registered its pest or weed control at 125 g/ha at 30

The molecule identified as "COc1ccc([C@H]2CN(C)C(=O)[C@@H]2C(=O)Nc2ccccc2SC)cc1C(F)(F)F" registered its pest or weed control at 125 g/ha at 0

The molecule identified as "Cc1cc([C@H]2CN(C)C(=O)[C@@H]2C(=O)Nc2cccc(F)c2F)cc(C)c1Br" registered its pest or weed control at 125 g/ha at 0

The molecule identified as "CN1C[C@H](c2cc(F)cc(Cl)c2)[C@@H](C(=O)Nc2ccccc2S(C)(=O)=O)C1=O" registered its pest or weed control at 125 g/ha at 60

The molecule identified as "CC(C)Oc1ccc([C@H]2CN(C)C(=O)[C@@H]2C(=O)Nc2ccccc2F)cc1" registered its pest or weed control at 125 g/ha at 0

The molecule identified as "O=C(Nc1cccc(Cl)c1F)[C@H]1C(=O)N(C2CC2)CC[C@@H]1c1ccc(F)cc1" registered its pest or weed control at 125 g/ha at 0

The molecule identified as "COc1ccc([C@H]2CN(C)C(=O)[C@@H]2C(=O)Nc2cccc(F)c2F)cc1F" registered its pest or weed control at 125 g/ha at 20

The molecule identified as "CN1C[C@H](c2csc(C(F)(F)F)c2)[C@@H](C(=O)Nc2cccc(F)c2F)C1=O" registered its pest or weed control at 125 g/ha at 30

Continuing:
The molecule identified as "CC(C)Oc1ccc([C@H]2CN(C)C(=O)[C@@H]2C(=O)Nc2ccc(F)cc2F)cc1" registered its pest or weed control at 125 g/ha at 0

The molecule identified as Cc1ccc([C@H]2CNC(=S)[C@@H]2C(=O)Nc2ccccc2F)cc1 (racemic) registered its pest or weed control at 125 g/ha at 0

The molecule identified as "CN1C[C@H](c2cc(F)cc(C(F)(F)F)c2)[C@@H](C(=O)Nc2ccc(F)c(F)c2F)C1=O" registered its pest or weed control at 125 g/ha at 70

====

System: giant foxtail (Setaria faberi)
Assay: Test G Post-Emergence Protocol
Assay type: in vivo
Settings: Setaria faberi, post-emergence, 312 h, 62.5 g ai/ha, evaluated after 13 days, 100=total damage to plant, 0=no damage to plant, read-out: Foxtail, Giant damage rating
Entries and their pest or weed control at 62.5 g/ha values follow.
Hi! Could you send only the number? It should be in %, unit omitted.

The compound identified as COc1ccc([C@@H]2CN(C)C(=O)[C@H]2C(=O)Nc2cccc(F)c2C)cc1Cl (racemic) [Compound 1793] registered its pest or weed control at 62.5 g/ha at 80

The compound identified as CN1C[C@H](c2cccc(C(F)(F)F)c2)[C@@H](C(=O)Nc2cnccc2[N+](=O)[O-])C1=O (racemic) [Compound 1731] registered its pest or weed control at 62.5 g/ha at 0

The compound identified as CCOc1c(Cl)cc(C2CN(C)C(=O)C2C(=O)Nc2cccc(F)c2F)cc1OC (stereo not shown) [Compound 1721] registered its pest or weed control at 62.5 g/ha at 50

Continuing:
The compound identified as CN1C[C@@H](c2cc(Br)cc(Oc3ccccc3)c2)[C@H](C(=O)Nc2cccc(F)c2F)C1=O (racemic) [Compound 1821] registered its pest or weed control at 62.5 g/ha at 10
